Assay: RP, Thermo Scientific Hypersil GOLD, 5 × 2.1 mm, 1.9 µm, 45 °C, 0.25 mL/min, estimated dead time 0.044 min; A: water + 0.1% formic acid, pH 3; B: 50% acetonitrile + 50% isopropanol + 0.1% formic acid, pH 3; gradient (min/%B) 0/5 0.5/5 5/50 5.5/95 6.5/95 10/5
Settings: stereoisomer not certain
property_label: LC retention time (min)

[[record]]
compound = "CCCCCC=CCC=CCC=CCC=CCCCC(=O)OC(COC(=O)CCCCCCCCCCCCC)COP(=O)([O-])OCC[N+](C)(C)C (configuration not stated)"
property_label = "LC retention time"
scale_unit = "min"
value_measured = 6.97

[[record]]
compound = "CCCCCC=CCC=CCCCCCCCCCC(=O)OC(COC(=O)CCCCCCCCCCCCC)COP(=O)([O-])OCC[N+](C)(C)C (configuration not stated)"
property_label = "LC retention time"
scale_unit = "min"
value_measured = 6.89

[[record]]
compound = "CCCCCC=CCC=CCC=CCC=CCCCCCC(=O)OCC(COP(=O)([O-])OCC[N+](C)(C)C)OC(=O)CCCCC=CCC=CCC=CCCCCC (configuration not stated)"
property_label = "LC retention time"
scale_unit = "min"
value_measured = 7.4

[[record]]
compound = "CCCCCC=CCC=CCC=CCC=CCCCC(=O)OCC(O)COP(=O)(O)OCCN (configuration not stated)"
property_label = "LC retention time"
scale_unit = "min"
value_measured = 6.69

[[record]]
compound = "CCCCCCCCCCCCCCCC(=O)OCC(O)COP(=O)([O-])OCC[N+](C)(C)C (configuration not stated)"
property_label = "LC retention time"
scale_unit = "min"
value_measured = 6.89

[[record]]
compound = "CCC=CCC=CCC=CCC=CCC=CCC=CCCC(=O)OC(COC(=O)CCCCCC=CCCCCCCCC)COP(=O)([O-])OCC[N+](C)(C)C (configuration not stated)"
property_label = "LC retention time"
scale_unit = "min"
value_measured = 7.37

[[record]]
compound = "CCCCCCCCCCCCCCCCOCC(O)COP(=O)([O-])OCC[N+](C)(C)C (configuration not stated)"
property_label = "LC retention time"
scale_unit = "min"
value_measured = 7.08

